- Assayed System: human CD40 on cells (HEK293 stable transfectants, HEK-Blue CD40 cells, human B cells, monocytic cells, … (human, UniProt P25942 21-277))
- Sequence (P25942 21-277 limits assumed): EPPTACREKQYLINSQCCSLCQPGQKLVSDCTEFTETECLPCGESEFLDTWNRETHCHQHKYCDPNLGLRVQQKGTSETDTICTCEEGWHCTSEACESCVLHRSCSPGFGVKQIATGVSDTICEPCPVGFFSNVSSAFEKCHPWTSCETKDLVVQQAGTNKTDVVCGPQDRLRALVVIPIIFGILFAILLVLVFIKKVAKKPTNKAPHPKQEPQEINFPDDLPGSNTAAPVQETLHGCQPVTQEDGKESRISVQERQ
- Experiment Summary: cell-based or functional assay
Attribute Measured: NF-κB activation EC50, HEK293 CD40 NFκB reporter cells (µg/mL)
Unit µg/mL implied. Number only.

Examples from the recorded data:
Binder | Test Result
huAb8-3 (antibody, human IgG1, V domains shown, human IgG1, kappa) VH: EVQLVQSGAEVKKPGSSVKVSCKASGYTFTDYYINWVRQAPGQGLEWIGWIFPGSGSVYCNEQFKGRVTITVDKSTSTAYMELSSLRSEDTAVYYCASSLGKFAYWGQGTLVTVSS VL: DIQMTQSPSSLSASVGDRVTITCKASQSVVTAVAWYQQKPGKSPKLLIYSASNRYTGVPSRFSGSGSGTDFTLTISSLQPEDFATYFCQQYSSYPYTFGGGTKVEIK | 0.07
huAb9-3 (antibody, human IgG1, V domains shown, human IgG1, kappa) VH: EVQLQESGPGLVKPSETLSLTCTVSGYSISSNYYWNWIRQPPGKGLEWMGYIRYDGSNNYNPSLKSRVTISRDTSKNQFSLKLSSVTAADTAVYYCARLDYWGQGTTVTVSS VL: DAVMTQTPLSLSVTPGQPASISCRSSQSLENTNGNTFLNWFLQKPGQSPQLLIYRVSNRFSGVPDRFSGSGSGTDFTLKISRVEAEDVGVYFCLQVTHVPFTFGQGTKLEIK | 0.18

Pending binder:
Input line: Request the reported NF-κB activation EC50, HEK293 CD40 NFκB reporter cells associated with huAb6-3 (antibody, human IgG1, V domains shown, human IgG1, kappa) VH: EVQLVQSGAEVKKPGSSVKVSCKASGYTFTSYWMHWVRQAPGQGLEWIGNIDPSNGETHYAQKFQGRVTITVDKSTSTAYMELSSLRSEDTAVYYCARERIYYSGSTYDGYFDVWGQGTTVTVSS VL: DIQLTQSPSFLSASVGDRVTITCSASSSLSYMHWYQQKPGKSPKRWIYDTSKLASGVPSRFSGSGSGTEYTLTISSLQPEDFATYYCQQWSSNPWTFGGGTKVEIK
Output line: 4.31
